- Tested on: Toxoplasma gondii RH 2F1 tachyzoites (intracellular in HFF)
- assayText: parasite survival relative to DMSO control; higher = less antiparasitic activity, active = 20 or less
- runConditions: 1 µM; 72 h
readoutName: parasite survival (%)
Expressed in %, but write only the number.

> print(dat)
                                   compound        readoutname  resultunit  measvalue
1  O=C(N[C@H](Cc1cccc2ccccc12)C(=O)NCCc1c[nH]cn1)C1Cc2ccccc2C1  parasite survival           %       33.7
2  Cc1ncc([N+](=O)[O-])n1CC(C)O (centres undefined)  parasite survival           %       48.2

Q. Entry CC(C)(C)c1cccc(-c2nc3cc(C(=N)N)ccc3[nH]2)c1O has what parasite survival?
A. 50.5

Q. I'd like to know its parasite survival. The compound in question is CCO/N=C/c1ccc(OCCCCN2CCN(c3ccncc3)C2=O)cc1
A. 47.7

====

- Test system: Toxoplasma gondii RH 2F1 tachyzoites (intracellular in HFF)
- assayText: parasite survival relative to DMSO control; higher = less antiparasitic activity, active = 20 or less
- runConditions: 1 µM; 72 h
Log the outcome using a class from active, inactive

> print(dat)
                                   compound  answerlabel
1  Cc1ccc(NC(=O)c2ccc(CN3CCN(C)CC3)cc2)cc1Nc1nccc(-c2cccnc2)n1     inactive
2                       CCCC(=O)OCCc1ccccc1     inactive
3  Cc1cc(O)c2c(c1)C(=O)c1c(I)c(O)c(I)c(O)c1C2=O     inactive
4  CC(C)c1cc2c(cc1S(=O)(=O)O)[C@@]1(C)CCC[C@@](C)(C(=O)O)[C@@H]1CC2     inactive
5  O=C(NCc1ncc(C(F)(F)F)cc1Cl)c1c(Cl)cccc1Cl     inactive

Q. I'd appreciate the recorded outcome for Cc1cc(CCCOc2c(C)cc(-c3noc(C(F)(F)F)n3)cc2C)on1 from this test.
A. inactive

Q. Please let me know the test result on file for N=c1n(CCN2CCCCC2)c2ccccc2n1CC(O)COc1ccc(Cl)cc1Cl (stereo not given) .
A. active

Q. In this assay, the call recorded for O=C(c1nc2c(C(F)(F)F)cc(C3CC3)cn2c1Cl)N1CCN([C@H]2CC[C@H](O)CC2)C(=O)C1 was what?
A. inactive

Q. For CN1c2ccc(Cl)cc2N(c2ccccc2)C(=O)c2cn(Cc3ccc(CN4CCOCC4)cc3)nc21 , what call appears in the results of this test?
A. inactive

Q. Query: recorded result category for COc1c(F)c(F)cc2c(=O)c(C(=O)O)cn(C3CC3)c12 in this test
A. inactive

The origin of these recorded values is the supplement of paper PMC10941209.
